# methodNotes: NCI Yeast Anticancer Drug Screen. Data for the mlh1 rad18 strain (AID 175)
# condition: S. cerevisiae mlh1 rad18 strain growth inhibition; at 50.0 µM; active compounds read high
About 79,000 compounds went through this panel and 15% of them were active in at least one assay; those are over-represented in the sample as a whole.
Lab note: compare growth inhibition against -10%. Equal or greater, write 1 (yes). Smaller, write 0 (no).

> print(dat)
                                    molecule  qualitativelabel
 1  c1ccc(N=C2SC(=NC3CCCCC3)N(C3CCCCC3)C2=Nc2ccccc2)cc1            0 (no)
 2              CCOC(=O)C(=CC(CC)CC)C(=O)OCC           1 (yes)
 3            C=CC(OC(=O)/C=C/C)OC(=O)/C=C/C           1 (yes)
 4             CC(C)(C)C(=O)/C(O)=C\c1ccccc1           1 (yes)
 5     CC1=CC(=O)/C(=C/N2C(=O)CNC2=S)C(=O)O1            0 (no)
 6           C[C@H](N)[C@@H](O)/C=C/c1ccccc1           1 (yes)
 7  C#Cc1c(C)c(/C=C/C(C)=C/C=C/C(C)=C/C(=O)OC)n(C)c1C           1 (yes)
 8  COc1cccc(C(C#N)c2cnc3ccccc3n2)c1 (configuration not stated)           1 (yes)
 9  N#CC(NNC(=O)c1ccccc1O)c1ccccc1 (configuration not stated)           1 (yes)
10  COC1(C)C=NCC(C)(C)NC(=O)C(C)(OC)C=NCC(C)(C)NC1=O (configuration not stated)            0 (no)
11  COc1cc([C@@H]2c3cc4c(cc3[C@](C)(O)[C@H]3COC(=O)[C@H]23)OCO4)cc(OC)c1OC           1 (yes)
12  O=C(NCCCl)NCC1CCCCO1 (configuration not stated)            0 (no)

* * *

# methodNotes: NCI Yeast Anticancer Drug Screen. Data for the mlh1 rad18 strain (AID 175)
# condition: S. cerevisiae mlh1 rad18 strain growth inhibition; at 50.0 µM; active compounds read high
This is part of a sample that, as a whole, favours compounds with a hit. Of some 79,000 tested, about 15% had one in any assay. Activity calls are given as the source filed them. No stated cut-off is given here; in the data, active means growth inhibition above about 70%; inactive means the rest. Where a SMILES comes first, the peptide text is derived from it. [ ]: non-standard residue; d: D form. The star is where a group is joined. Nle = CCCC[CH](N)C(=O)O; Cbz = O=C(OCc1ccccc1)*
Measured growth inhibition values are reported for all entries that follow.
measuredEndpoint: growth inhibition

> print(dat)
                                    compound   measuredendpoint          measvalue
 1  CCCCC(NC(=O)C(Cc1ccccc1)NC(=O)OCc1ccccc1)C(=O)O (stereo not drawn) (Cbz-Phe-[Nle]-OH; configuration not given here)  growth inhibition   9.05% (inactive)
 2  Cc1ccccc1NC(=O)CN1CCCC(C)C1 (stereo unspecified)  growth inhibition   5.45% (inactive)
 3  CC1(C)CC([NH-])(C(=O)O)CC(C)(C)N1O.CC1(C)CC([NH-])(C(=O)O)CC(C)(C)N1O.[Pt+2]  growth inhibition  -23.8% (inactive)
 4  CCOc1c(N=Nc2ccccc2Cl)c(-c2ccccc2)nn1C(N)=S  growth inhibition   15.6% (inactive)
 5                 CN1CCN(C(=O)NC(C)(C)C)CC1  growth inhibition  -17.7% (inactive)
 6                      CCCCCCCOC(=O)C(CC)CC  growth inhibition   6.45% (inactive)
 7  CCOC(=O)CNC(=O)C(Cc1cnc[nH]1)NC(=O)OCc1ccccc1 (stereo unspecified)  growth inhibition   -3.7% (inactive)
 8  COc1ccc(C2OC3=C(Nc4ccc(Cl)cc4N3)C2=O)cc1 (stereo unspecified)  growth inhibition   14.9% (inactive)
 9  CC1(C)CC(=O)C(/C=N/C(=S)NCCc2ccccc2)=C(O)C1  growth inhibition   -7.6% (inactive)
10  Oc1c2cccc1Cc1cccc3c1OCCOCCOCCOCCOc1c(cccc1Cc1cccc(c1O)C3)C2  growth inhibition  -6.05% (inactive)
11                CCOCCOC(=O)c1ccc(C(C)C)cc1  growth inhibition    3.5% (inactive)

* * *

# methodNotes: NCI Yeast Anticancer Drug Screen. Data for the mlh1 rad18 strain (AID 175)
# condition: S. cerevisiae mlh1 rad18 strain growth inhibition; at 50.0 µM; active compounds read high
# Description: Growth inhibition of yeast strains with defined genetic alterations is measured as a screen for potential anti-cancer activity. Selected strains with alterations in DNA damage repair or cell cycle control were exposed to compounds and growth inhibition was measured relative to vehicle treated controls. The strain used in this assay is mlh1 rad18
The panel holds about 79,000 compounds, 15% with a hit somewhere; the sample as a whole holds those more often.
Values of growth inhibition greater than or equal to -30% map to label 1; values below map to label 0.

> print(dat)
                                   molecule  qualitativelabel
1  CCCCCCCCCCCCCCCC(=O)NCC(=O)NC1C(CO)OC(Nc2ncnc3nc[nH]c23)C(O)C1O (stereo unspecified)           label 1
2  O=c1[nH]c(Nc2nc3ccccc3[nH]2)nc(O)c1-c1ccccc1           label 1
3              CCc1c(C)c(C)c(C)c(C)c1C(C)=O           label 1
4                    CCOC(=O)c1cccc2ncccc12           label 1
5  CC(C)C(=O)OC1c2cc(OCCN(C)C)ccc2CC1C (stereo unspecified)           label 0
6                  Nc1ccnc(SCCCCc2ccccc2)n1           label 1

* * *

# methodNotes: NCI Yeast Anticancer Drug Screen. Data for the mec2-1 strain (AID 157)
# condition: S. cerevisiae mec2-1 strain, at 50.0 µM, active compounds read high
About 79,000 compounds went through this panel and 15% of them were active in at least one assay; those are over-represented in the sample as a whole.
Recorded growth inhibition by entry
measuredEndpoint: growth inhibition (%)

compound	measValue
O=C(/C=C/c1ccccc1)Oc1ccccc1	5.55
OC1COC(C2CCCO2)OC1 (stereo not drawn)	-6.2
Cc1cccc(Cl)c1OCC(=O)Nc1ccccc1	10.1
Cc1cccc(-c2nc(N)nc(N)n2)c1	-9.45
CCOCc1cc(Cc2cc(COCC)c3cccnc3c2O)c(O)c2ncccc12	16.7
COc1ccc(C(O)/C(=C/n2ccnc2)c2ccccc2)cc1OC (stereo not drawn)	-17.8
NC(=O)[N+](=CC(=S)Nc1ccccc1Cl)C(N)=O	-43.5
O=C(Nc1ccccc1)Oc1cccc(-c2ccc(-c3ccccc3)cc2)c1	6.5
O=C1OC2C(Cl)CC(Cl)CC2C=C1c1cccc([N+](=O)[O-])c1 (stereo not drawn)	12.2
Cc1ccccc1-n1c(C)nc2cc(NC(N)=S)ccc2c1=O	-3.05
O=C(O)c1c2c(cc3c(=O)c4ccccc4[nH]c13)CCCC2	-16.4
COc1cccc(N(CCO)C2CCCCC2)c1	4.2
CCCCCC/C(C)=C/CCC(C)=O	4.15
Cc1[nH]n(C(=O)c2ccc(Cl)cc2)c(=O)c1/C=C1\C(O)=CC(=O)c2ccccc21	-6.85
N#CNC1=NC(N)C(c2nc3ccccc3[nH]2)=C(CCCC(=O)Nc2cccc([N+](=O)[O-])c2)N1 (stereo not drawn)	17.1
N#Cc1sc2nc3c(c(-c4ccccc4)c2c1N)CCCC3	-4.65
OCC(I)CO	3.45
CC(C)(C)OC(=O)C(C1NC(C(=O)O)C(C)(C)S1)N1C(=O)c2ccccc2C1=O (stereo not drawn)	-43
CN1C(=O)C(CCCN=C(N)N)NC1=S (stereo not drawn)	-2.4
CN(C)c1ccc2c(c1)Cc1cc(N3C(=O)C=CC3=O)ccc1-2	98
Oc1[nH]c2ccccc2c1N=NC(=S)Nc1ccccc1Cl	-2.3
O=C(O)COc1ccccc1C1CCCCC1	7.6
C[N+](C)(CCCn1ccnc1[N+](=O)[O-])CCCn1ccnc1[N+](=O)[O-]	-6
O=C[C@H](O)CO	-20.1
O=[N+]([O-])c1cc([N+](=O)[O-])c(C(Cl)C(Cl)c2ccccc2)cc1C(Cl)C(Cl)c1ccccc1 (stereo not drawn)	2.55
Oc1cc(OCCCc2ccc(F)cc2)cc2ccc3ccccc3c12	43.5
CCCCCCC(C)C(CC)(C(=O)OCC)C(=O)OCC (stereo not drawn)	6.55
CSc1n[nH]c(-c2cccs2)n1	-15.7
CCOC(=O)C(Cc1ccc(Cl)cc1)(Cc1ccc(Cl)cc1)C(=O)OCC	-30.4
Cn1c(O)c(C=Nc2ccccc2Cl)c(=O)n(C)c1=O	-4.65
Cc1ccc(=O)n(Cc2ccccc2)n1	-31.9
Cc1c(C(=O)O)n2cnnc2c2ccccc12	4
CC/C(=N/NC(=O)c1ccccc1)c1ccccc1	9.5
COc1cccc(N=Cc2ccc(C=Nc3cccc(OC)c3)cc2)c1	-9.1
Fc1ccc(C(Nc2nncs2)Nc2nncs2)c(F)c1	-13.8
O=C1CC2(CCc3ccccc32)C(=O)N1CN1CCN(CCO)CC1 (stereo not drawn)	-5.8
Cc1cccc2c3c(ccc12)C(=O)OC3=O	-2.85
CC(=O)CC(=O)NCc1cccc(C)n1	24.6
CC(=O)[CH-]C(=O)c1ccccc1.CC(=O)[CH-]C(=O)c1ccccc1.CC[C@H](/C=C/C(C)[C@H]1CCC2[C@@H]3CC=C4C[C@@H]([O-])CC[C@]4(C)C3CC[C@@]21C)C(C)C.CC[O-].[Ti+4] (stereo partly drawn)	-4.6
COc1cc(C(c2cc3c(cc2O)OCO3)N2CCCC2)cc(OC)c1OC (stereo not drawn)	17.9
C=C/C=N/Nc1ccc([N+](=O)[O-])cc1[N+](=O)[O-]	5.4
CCN(CC)C(=S)N1CCCCC1	-14.6
CCN(CC)CCOCC1CCCN2CCCCC12 (stereo not drawn)	-9.8
C=CC(CO)N1CCCCC1 (stereo not drawn)	24.6
COc1ccc(C2C3=C(COC3=O)OC(C)(C)Oc3cc4c(cc32)OCO4)cc1 (stereo not drawn)	0.85
CN(C)/C(=N/C(=O)Nc1ccccc1)SCc1ccccc1	-3.9
COC1=CC(=O)c2ccccc2C1(CCC=C(C)C)C1=NC(C)(C)CO1 (stereo not drawn)	-11.6
Oc1ccccc1C1N=NC2=C(CCCC2)N1O (stereo not drawn)	-26.4
